pIC50: −log10 of the molar value.
Listed below are compounds with pIC50 for UniProtKB P08684, each taken from published literature.
Sequence (P08684 whole entry): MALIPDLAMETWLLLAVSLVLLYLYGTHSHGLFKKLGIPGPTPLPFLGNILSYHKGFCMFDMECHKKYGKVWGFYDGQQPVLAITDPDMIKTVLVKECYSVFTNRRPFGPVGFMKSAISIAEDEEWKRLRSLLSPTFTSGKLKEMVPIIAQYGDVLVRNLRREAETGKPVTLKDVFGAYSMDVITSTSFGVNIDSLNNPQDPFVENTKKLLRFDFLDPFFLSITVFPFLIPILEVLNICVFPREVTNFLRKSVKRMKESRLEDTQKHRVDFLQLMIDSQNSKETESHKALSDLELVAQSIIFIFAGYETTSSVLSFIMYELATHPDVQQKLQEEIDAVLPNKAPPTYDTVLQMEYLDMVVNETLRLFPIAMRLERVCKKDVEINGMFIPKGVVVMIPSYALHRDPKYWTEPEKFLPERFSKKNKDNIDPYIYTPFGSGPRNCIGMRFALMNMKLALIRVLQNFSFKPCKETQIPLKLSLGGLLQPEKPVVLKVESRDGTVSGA
Rule: pIC50 of 5 or more gives condition met; anything lower gives condition not met.

These solved cases illustrate the format of a correct answer.
CCNC1=N[C@@H]2[C@@H](OC)[C@H](O)[C@@H](CO)O[C@@H]2S1 ... condition not met
COCCCS(=O)(=O)c1ccc(-c2ccc(CCN3CCC[C@H]3C)cc2)cc1 ... condition not met
CCNC1=N[C@H]2[C@H](O[C@H](CO)C[C@@H]2O)S1 ... condition not met

Does the compound CNC(=O)c1ccc(N2CCN(c3cccc(C(=O)NC4C5CC6CC4CC(O)(C6)C5)n3)[C@H](C)C2)cn1 (some centres not stated) have recorded pIC50 that is 5 or more?
condition not met

Answer whether pIC50 of `CC[C@H](c1ccccc1)n1c(=O)[nH]c2cnc3cc(-c4c(C)noc4C)c(OC)cc3c21` is greater than or equal to 5.
condition met
